Test system: P. berghei ookinete development
CONDITION_DETAILS: primary screen at 1 μM, replicate A
// values below are reported % inhibition, Replicate A
Record the value in %, omitting the unit from your answer.

CN(C)c1ccc(C=CC(=O)NC(=O)c2ccccc2O)cc1; 87.61
CNC(=O)c1ccccc1Nc1nc(Nc2ccc(CCN3CCN(C)CC3)cc2)ncc1Cl.Cl; 66.37
CCCN1CCN(CCCCNc2c3ccccc3nc3ccccc23)CC1.Cl; 35.45
COc1ccc(O)c(Cc2cnc3nc(N)nc(N)c3c2C)c1.O=C(O)C(F)(F)F; 11.48
COc1ccc2nccc([C@@H](O)CN3CCC(NCc4cc5ccc(C#N)cc5[nH]4)CC3)c2c1.O=C(O)C(=O)O; 54.58
CCCCCCCc1cc(=O)c2ccccc2[nH]1; 86.88

// % inhibition, Replicate A lookup, molecule = Cc1[nH]c(C)c(-c2ccc(-c3ccc(OC(F)(F)F)cc3)cc2)c(=O)c1Cl , result: 87.72

// % inhibition, Replicate A lookup, molecule = Cc1[nH]c(C)c(-c2ccc(OCc3cc(F)cc(F)c3)nc2)c(=O)c1Cl , result: 78.17

// % inhibition, Replicate A lookup, molecule = Cc1cc(SC(C)(C)C)cc2c(Cl)c(C(N)=O)cnc12 , result: 28.78

// % inhibition, Replicate A lookup, molecule = O=c1c(Br)ccccc1Br , result: 52.58

// % inhibition, Replicate A lookup, molecule = c1ccc(-c2csc(Nc3nc4cc5c(cc4s3)OCO5)n2)nc1 , result: 83.78

// % inhibition, Replicate A lookup, molecule = COc1ccc2ncc(F)c(CCN3C4CCC3CC(NCc3ccc5c(c3)OCCO5)C4)c2n1.Cl (stereo not drawn) , result: 30.43

// % inhibition, Replicate A lookup, molecule = COc1c(C)[nH]c(C)c(-c2ccc(Oc3cccc(C(F)(F)F)c3)cc2)c1=O , result: 56.53

// % inhibition, Replicate A lookup, molecule = Cc1cccc(Nc2nc(N[C@@H]3CCCNC3)nc3cc[nH]c(=O)c23)c1.O=C(O)C(F)(F)F , result: 88.28

// % inhibition, Replicate A lookup, molecule = O=C(Nc1ccc(N2CCCN(Cc3cccc(F)c3)CC2)cc1)c1cccs1.O=C(O)C(F)(F)F , result: 50.47

// % inhibition, Replicate A lookup, molecule = COc1ccc2ncc(C)c(CCN3CCC(NCc4ccc5c(n4)NC(=O)CS5)CC3)c2c1.Cl , result: 66.89

// % inhibition, Replicate A lookup, molecule = Cc1ccc2nc(/N=C(\N)NC(=O)NC3CCCCC3)nc(C)c2c1 , result: 85.28

// % inhibition, Replicate A lookup, molecule = CCN(CC)c1ccccc1CNC(=O)c1cc(Cl)c(N)cc1OC , result: 54.83
